Origin of values: ChEMBL document CHEMBL4118268

- Test protocol: Tmax in humanized NOD-scid IL2Rgamma null mouse infected with Plasmodium falciparum 3D70087/N9 at 50 mg/kg, po up to 96 hrs post dose by LC-MS/MS analysis
- Format: ADME, organism-based
- Condition label: in vivo
Quantity name: Tmax
Provide a numeric answer, followed by its unit.

Query: Requested field: Tmax. Item: NS(=O)(=O)c1cccc(-c2ccc3nccc(-c4ccnc(C(F)(F)F)c4)c3n2)c1
Reply: 2.5 h

* * *

- Test protocol: Apparent half life in Balb/c mouse at 20 mg/kg, po by LC-MS analysis
- Assay type: ADME, organism-based
- Condition label: in vivo, read-out: t1/2(app) (converted)
Quantity name: half-life (h)
Reply numerically in h, unit not repeated.

Query: Requested field: half-life. Item: NS(=O)(=O)c1cccc(-c2ccc3nccc(-c4ccncc4)c3n2)c1
Reply: 1.6

* * *

- Test protocol: Cmax in Balb/c mouse pretreated with CYP inhibitor ABT at 20 mg/kg, po by LC-MS analysis
- Assay type: ADME, organism-based
- Parameters: dose 20 mg/kg, route oral
- Condition label: in vivo
Quantity name: Cmax (nM)
Reply numerically in nM, unit not repeated.

Query: Requested field: Cmax. Item: NS(=O)(=O)c1cccc(-c2ccc3nccc(-c4ccncc4)c3n2)c1
Reply: 500

* * *

- Test protocol: Volume of distribution in Balb/c mouse at […], iv by LC-MS analysis
- Assay type: ADME, organism-based
- Condition label: in vivo
Quantity name: Vd

Query: Requested field: Vd. Item: NS(=O)(=O)c1cccc(-c2ccc3nccc(-c4ccnc(C(F)(F)F)c4)c3n2)c1
Reply: 7 L/kg

* * *

- Test protocol: Metabolic stability in mouse liver microsomes assessed as parent compound remaining at 0.1 uM in presence of NADPH after 30 mins by LC-MS/MS analysis
- Type: ADME, microsome
- Condition label: read-out: Stability
Quantity name: remaining at 0.5 h, 0.1 µM (%)
Reply numerically in %, unit not repeated.

Recorded remaining at 0.5 h, 0.1 µM, per entry:
O=S(=O)(c1cccc(-c2ccc3nccc(-c4ccncc4)c3n2)c1)N1CC[C@H](O)C1    12
O=S(=O)(NCC1COC1)c1cccc(-c2ccc3nccc(-c4ccncc4)c3n2)c1    19
Nc1cccc(-c2ccc3nccc(-c4ccncc4)c3n2)c1    54

Next item in the queue.
Query: Requested field: remaining at 0.5 h, 0.1 µM. Item: C[C@@H]1CN(S(=O)(=O)c2cccc(-c3ccc4nccc(-c5ccncc5)c4n3)c2)C[C@H](C)N1
Reply: 33

* * *

Entries and their remaining at 0.5 h, 0.1 µM
- Test protocol: Metabolic stability in human liver microsomes assessed as parent compound remaining at 0.1 uM in presence of NADPH after 30 mins by LC-MS/MS analysis
- Format: ADME, microsome
- Condition label: read-out: Stability
Reply numerically in %, unit not repeated.

Query: Requested field: remaining at 0.5 h, 0.1 µM. Item: O=S(=O)(c1cccc(-c2ccc3nccc(-c4ccncc4)c3n2)c1)N1CC[C@H](O)C1
Reply: 17

Query: Requested field: remaining at 0.5 h, 0.1 µM. Item: CS(=O)(=O)Nc1ccc2nccc(-c3ccncc3)c2n1
Reply: 96

Query: Requested field: remaining at 0.5 h, 0.1 µM. Item: O=S(=O)(NCc1ccccc1)c1cccc(-c2ccc3nccc(-c4ccncc4)c3n2)c1
Reply: 42

* * *

- Test protocol: Metabolic stability in rat liver microsomes assessed as parent compound remaining at 0.1 uM in presence of NADPH after 30 mins by LC-MS/MS analysis
- Format: ADME, microsome
- Condition label: read-out: Stability
So basically, if remaining at 0.5 h, 0.1 µM comes in under 70% it's true, and if it's 70% or more it's false.

Example entries begin here.
O=S(=O)(CCO)c1cccc(-c2ccc3nccc(-c4ccncc4)c3n2)c1    true
CS(=O)(=O)Nc1ccc2nccc(-c3ccncc3)c2n1    false
O=S(=O)(CCN1CCCC1)c1cccc(-c2ccc3nccc(-c4ccncc4)c3n2)c1    true
Nc1cccc(-c2ccc3nccc(-c4ccncc4)c3n2)c1    true

Query: Determine whether this compound shows remaining at 0.5 h, 0.1 µM lower than 70% (ties excluded): O=S(=O)(NCC1COC1)c1cccc(-c2ccc3nccc(-c4ccncc4)c3n2)c1
Reply: true
